Hello, the source for this data is ChEMBL document CHEMBL1201862, in case you need it.

tested on: NCI-H460; assay: NCI tumour cell line growth inhibition, 48 h
Active and inactive are the calls of the source. Cut-off read from the data, not from the text of the source: active = GI50 up to about 1.1 µM and inactive = higher.
PARAMETER: GI50

>  <COMPOUND>
CCOC(=O)Cn1c(=O)c2nc(SC)sc2n(-c2ccccc2)c1=O

>  <PARAMETER>
GI50

>  <OBSERVED_RESULT>
> 100 µM (inactive)

$$$$
>  <COMPOUND>
S=c1c2cc(I)ccc2nc(S)n1Cc1ccccc1

>  <PARAMETER>
GI50

>  <OBSERVED_RESULT>
3.28 µM (inactive)

$$$$
>  <COMPOUND>
O=C1N=C2N=C(c3ccc(Cl)cc3)N(c3ccc(Cl)cc3)N2Sc2ccccc21

>  <PARAMETER>
GI50

>  <OBSERVED_RESULT>
81.3 µM (inactive)

$$$$
>  <COMPOUND>
N#CC1(Cc2ccccc2)CCCCN1C(=O)c1ccccc1 (stereo not drawn)

>  <PARAMETER>
GI50

>  <OBSERVED_RESULT>
> 100 µM (inactive)

$$$$
>  <COMPOUND>
C=CC[P@@]1(=O)O[C@H](c2ccccc2)C(C)N1C(C)C (stereo partly drawn)

>  <PARAMETER>
GI50

>  <OBSERVED_RESULT>
> 100 µM (inactive)

$$$$

QUERY: Would you kindly share the measured GI50 for Cc1ccc(/N=N/C(C2=NC(=O)CS2)c2nc3ccccc3[nH]2)cc1 (stereo not drawn) ?
RESULT: > 100 µM (inactive)

QUERY: Same again, this time with c1coc(CNc2[nH]cnc3nncc2-3)c1
RESULT: > 100 µM (inactive)

QUERY: Same again, this time with CC(C)Nc1n[nH]c(=O)n1C(C)C
RESULT: > 100 µM (inactive)

---

test system: SR; assay: NCI tumour cell line growth inhibition, 48 h
Active and inactive are the calls of the source. Rule as the data show it: active = GI50 up to about 1.1 µM and inactive = higher.
PARAMETER: GI50

>  <MOLECULE>
CC1CC(c2ccc([N+](=O)[O-])cc2)=Nc2ccccc2[S+]1[O-] (stereo unspecified)

>  <PARAMETER>
GI50

>  <OBSERVED_RESULT>
22.5 µM (inactive)

$$$$
>  <MOLECULE>
CCOc1ccc(/C=N/[N+](C)(C)C)cc1OCC

>  <PARAMETER>
GI50

>  <OBSERVED_RESULT>
> 10 µM (inactive)

$$$$
>  <MOLECULE>
COc1nc(N)c(/N=C/C(OC(C)=O)C(OC(C)=O)C(COC(C)=O)OC(C)=O)c(=O)n1C (stereo unspecified)

>  <PARAMETER>
GI50

>  <OBSERVED_RESULT>
> 100 µM (inactive)

$$$$
>  <MOLECULE>
CCOC(=O)C(C(=O)OCC)C(=S)NC1OC(COC(C)=O)C(OC(C)=O)C(OC(C)=O)C1OC(C)=O (stereo unspecified)

>  <PARAMETER>
GI50

>  <OBSERVED_RESULT>
> 100 µM (inactive)

$$$$
>  <MOLECULE>
O=C(O)CCc1ccc2c(c1)C(=O)CC2

>  <PARAMETER>
GI50

>  <OBSERVED_RESULT>
> 100 µM (inactive)

$$$$

# input for lookup
QUERY: Would you kindly share the measured GI50 for C/C=C1/CN2CCC34C5=CC(=O)C(c6cc7c(cc6OC)N(C)C6=C(C(=O)OC)CC8(CC)CCCN9CCC67C98)=CC5=NC23CCC1C4C(=O)OC (stereo unspecified) ?
RESULT: 2.73 µM (inactive)
